Origin of values: patent US20040018971A1

assay-target: T1, HLA-A*1101 (purified HLA class I molecule) (human)
T1 construct: Purified MHC molecule
assay-remarks: competition vs 125I standard peptide, purified HLA
Recorded relative binding ratio by entry

Find the recorded relative binding ratio belonging to KIPVAIKVLR [HER2/neu peptide, position 747, 10 amino acids] and report it. 0.0099 ratio (IC50 standard/IC50 test)

Find the recorded relative binding ratio belonging to LIKRRQQKIR [HER2/neu peptide, position 674, 10 amino acids] and report it. 0.0001 ratio (IC50 standard/IC50 test)

Find the recorded relative binding ratio belonging to LSPGKNGVVK [HER2/neu peptide, position 1173, 10 amino acids] and report it. 0.0003 ratio (IC50 standard/IC50 test)

Find the recorded relative binding ratio belonging to KIRKYTMR [HER2/neu peptide, position 681, 8 amino acids] and report it. 0.0004 ratio (IC50 standard/IC50 test)

Find the recorded relative binding ratio belonging to MIDSECRPR [HER2/neu peptide, position 960, 9 amino acids] and report it. 0.0006 ratio (IC50 standard/IC50 test)

Find the recorded relative binding ratio belonging to GVVFGILIK [HER2/neu peptide, position 668, 9 amino acids] and report it. 0.089 ratio (IC50 standard/IC50 test)

Find the recorded relative binding ratio belonging to KVLRENTSPK [HER2/neu peptide, position 753, 10 amino acids] and report it. 0.22 ratio (IC50 standard/IC50 test)

Find the recorded relative binding ratio belonging to LACHQLCAR [HER2/neu peptide, position 509, 9 amino acids] and report it. 0.0003 ratio (IC50 standard/IC50 test)
